B1: Peroxisome proliferator-activated receptor delta, residues 71 to 145; numbered along this chain, Q03181 (parent)
chain: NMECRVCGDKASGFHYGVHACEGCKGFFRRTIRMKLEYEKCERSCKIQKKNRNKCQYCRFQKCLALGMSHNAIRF

variants of: B1; experiment: abundance fitness (aPCA) (normalised: wild type 0, dead -1); higher = more abundant; growth selection in yeast, the domain comes from the species named; details: Homo sapiens
Quick rule for you: abundance fitness at -0.2 or higher means YES, lower means NO.

| VARIANT_IDENTIFIER | LABEL_VALUE |
| --- | --- |
| C55E | NO |
| I73W | YES |
| R5P | NO |
| F75R | YES |
| E22H | NO |

INPUT: Decide: abundance fitness of K49T >= -0.2?
OUTPUT: YES

INPUT: Decide: abundance fitness of K35Y >= -0.2?
OUTPUT: NO

INPUT: Decide: abundance fitness of H19N >= -0.2?
OUTPUT: YES

INPUT: Decide: abundance fitness of N51S >= -0.2?
OUTPUT: YES

INPUT: Decide: abundance fitness of Y16D >= -0.2?
OUTPUT: YES

INPUT: Decide: abundance fitness of F75K >= -0.2?
OUTPUT: YES

INPUT: Decide: abundance fitness of K25W >= -0.2?
OUTPUT: YES

INPUT: Decide: abundance fitness of Y38A >= -0.2?
OUTPUT: NO

INPUT: Decide: abundance fitness of Q61A >= -0.2?
OUTPUT: YES

INPUT: Decide: abundance fitness of C4W >= -0.2?
OUTPUT: NO

INPUT: Decide: abundance fitness of H15I >= -0.2?
OUTPUT: YES

INPUT: Decide: abundance fitness of R52P >= -0.2?
OUTPUT: YES

INPUT: Decide: abundance fitness of F27Y >= -0.2?
OUTPUT: NO

INPUT: Decide: abundance fitness of F28L >= -0.2?
OUTPUT: NO

INPUT: Decide: abundance fitness of E22I >= -0.2?
OUTPUT: YES

INPUT: Decide: abundance fitness of Q56M >= -0.2?
OUTPUT: YES

INPUT: Decide: abundance fitness of K62F >= -0.2?
OUTPUT: NO

INPUT: Decide: abundance fitness of C24Y >= -0.2?
OUTPUT: NO
